test: qHTS of pediatric cancer cell lines to identify multiple opportunities for drug repurposing: Confirmatory screen for Rh18 cells (AID 1347125); details: Rh18 rhabdomyosarcoma cells, viability; series mostly up to 45.9 µM;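 note: cells exposed to compound for 48 h; nearly all actives have a fitted effect of over 55% in size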
Results filed as inconclusive are left out. Calls of active or inactive are those of the source. Calls come from the whole dose curve; as a rule, active = well fitted cell-killing curve with a large enough effect; inconclusive = small, poorly fitted or top-dose-only effect, or effect the other way; inactive = flat fitted curve, though single readings scatter.
Your response should consist of one outcome taken from active, inactive

COC(=O)c1ccc2c(C(=Nc3ccc(N(C)C(=O)CN4CCN(C)CC4)cc3)c3ccccc3)c(O)[nH]c2c1 ... active
CC[C@@H]1C(=O)N(C)c2cnc(Nc3ccc(C(=O)NC4CCN(C)CC4)cc3OC)nc2N1C1CCCC1 ... active

What was the test verdict on `O=C(C=Cc1cccc(S(=O)(=O)Nc2ccccc2)c1)NO` ?
active

# iterate: `Cc1c(CN2CCN(S(C)(=O)=O)CC2)sc2c(N3CCOCC3)nc(-c3cnc(N)nc3)nc12`
active

Request: `CC(C)(O)c1cc2nc(-c3cnc(N)nc3)nc(N3CCOCC3)c2s1`
active

Same lookup for `Cc1cc(N2CCOCC2)cc2[nH]c(-c3c(NC[C@@H](O)c4cccc(Cl)c4)cc[nH]c3=O)nc12` , please.
active

Do the same for `CN1CCN(c2cc(C(=O)Nc3ccc4c(c3)-c3c(c(C(N)=O)nn3-c3ccc(F)cc3)CC4)c(Cl)cn2)CC1` please
active

What do we get for `O=C(Cc1ccc(-c2ccc(OCCN3CCOCC3)cc2)cn1)NCc1ccccc1` ?
inactive

Now try `Cc1c(C)n(Cc2ccc(-c3ccccc3C(=O)O)cc2)c2ccc(C(=O)N[C@@H](C)c3ccc([N+](=O)[O-])cc3)cc12` .
inactive

Now give it for `CCn1nnc2c(N3CCOCC3)nc(-c3ccc(NC(=O)Nc4ccc(C(=O)N5CCN(C)CC5)cc4)cc3)nc21` too.
active

* * *

assay: qHTS to identify inhibitors of the type 1 interferon - major histocompatibility complex class I in skeletal muscle: primary screen against the NCATS Mechanism Interrogation Plate v5.0 (MIPE) Libary (AID 1347411); conditions: iHSKM cells + IFN-b, HiBiT-tagged MHC-I luminescence, 24 h; series mostly up to 45.8 µM; note: nearly all actives have a fitted effect of over 65% in size; note: potency is the fitted concentration of half-maximal effect
Inconclusive results are not listed. Active and inactive are the calls of the source. The call rests on the fitted dose curve; in most records, active means well fitted inhibition curve with a large enough effect; inconclusive means small, poorly fitted or top-dose-only effect; inactive means no such curve, though single readings can be large or run the other way.
Result type: Potency

CNC(=O)c1ccc(-c2cnc3ncc(Cc4ccc5ncccc5c4)n3n2)cc1F ... inactive
Cc1cc(Nc2cc(CN3CCOCC3)c3nc(C)c(Cc4ccc(Cl)cc4F)n3n2)n[nH]1 ... 5.23 µM (active)
CC(C)(C)c1cnc(CSc2cnc(NC(=O)C3CCNCC3)s2)o1 ... 0.262 µM (active)
NCC(=O)Nc1ccc(-n2nc(C(F)(F)F)cc2-c2ccc3c(ccc4ccccc43)c2)cc1 ... inactive
COc1ccc(CC2SC(=O)NC2=O)cc1C(=O)NCc1ccc(C(F)(F)F)cc1 (stereo not drawn) ... inactive
C=CC(=O)Nc1cccc(Oc2nc(Nc3ccc(N4CCN(C)CC4)cc3)ncc2Cl)c1 ... 16.5 µM (active)

Reported Potency for `Cc1cc(CN2CCN(c3c(Br)cnc4nc(-c5ccc(N6CCN(C)CC6)cc5)[nH]c34)CC2)no1` : what is it?
6.58 µM (active)

Also, CCOC(=O)C1=C(C)NC2=C(C(=O)CC(C)(C)C2)C1c1ccc(-c2ccccc2)cc1 (stereo not drawn) please.
3.3 µM (active)

* * *

test: qHTS of pediatric cancer cell lines to identify multiple opportunities for drug repurposing: Primary screen for U-2 OS cells (AID 1347096); conditions: U-2 OS viability, CellTiter-Glo luminescence, 48 h; series mostly up to 46 µM; note: nearly all actives have a fitted effect of over 50% in size
Results filed as inconclusive are left out. The source made the active and inactive calls. Calls come from the whole dose curve; as a rule, active = well fitted cell-killing curve with a large enough effect; inconclusive = small, poorly fitted or top-dose-only effect; inactive = flat fitted curve, though single readings scatter.
Your reply should match one of these outcome classes. active, inactive

Examples from the recorded data:
CN(C1CCc2c(c3ccccc3n2CC(=O)O)C1)S(=O)(=O)c1ccc(F)cc1 (stereo unspecified) ... inactive
CCOc1cc2ncc(C#N)c(Nc3ccc(F)c(Cl)c3)c2cc1NC(=O)C=CCN(C)C ... inactive
COc1cc2c(Oc3ccc(NC(=O)C4(C(=O)Nc5ccc(F)cc5)CC4)cc3F)ccnc2cc1OCCCN1CCOCC1 ... active
Cc1cc(Nc2cc(NC(=O)c3c(Cl)cccc3Cl)ccn2)nc(N)n1 ... active
Cc1cc(Nc2cc(CN3CCOCC3)c3nc(C)c(Cc4ccc(Cl)cc4F)n3n2)n[nH]1 ... inactive
CS(=O)(=O)c1ccc(-c2cnc(N)c(C(=O)Nc3ccccc3)n2)cc1 ... inactive
CC(O)C1C(=O)N2C(C(=O)O)=C(SC3CNC(C(=O)N(C)C)C3)C(C)C12 (stereo unspecified) ... inactive
Cc1ccc(C(=O)Nc2ccc(CN3CCN(C)CC3)c(C(F)(F)F)c2)cc1C#Cc1cnc2cccnn12 ... active

Look up the recorded call for `Cc1ccc(NC(=O)C2(c3ccc4c(c3)OC(F)(F)O4)CC2)nc1-c1cccc(C(=O)O)c1` in this test.
active

Further, for `CC1(C)OC2=C(C(=O)c3ccccc3C2=O)[C@H](NCc2ccccc2)[C@H]1O` ?
active

Another molecule to look at: `Fc1cc(-c2cccc3ncc(-c4cnn(C5CCNCC5)c4)nc23)cc(F)c1CN1CCOCC1`
inactive

* * *

assay: Quantitative High-Throughput drug screen in 47 multiple myeloma cell lines against the NCATS MIPE library collection: Karpas25_ECACC cell viability assay (AID 1918968; note: nearly all actives have a fitted effect of over 35% in size); settings: Karpas25 myeloma viability, CellTiter-Glo ATP, 48 h; series mostly up to 45.8 µM
Inconclusive results are not listed. Calls of active or inactive are those of the source. Calls follow the shape of the dose curve; as a rule, active = well fitted cell-killing curve with a large enough effect; inconclusive = small, poorly fitted or top-dose-only effect, or effect the other way; inactive = no such curve, though single readings can be large or run the other way.
Output constraint: value belongs to Yes = active, No = inactive

Example entries and their recorded answers appear below.
CC(C)(C)c1cc(C(C)(C)C)c(NC(=O)c2c[nH]c3ccccc3c2=O)cc1O ... No
C1=CCOCc2cc(ccc2OCCN2CCCC2)Nc2nccc(n2)-c2cccc(c2)OCC1 ... Yes

Fill in: this test's call for `Cc1cc(Nc2nc(N[C@@H](C)c3ccc(F)cc3)c(C#N)cc2F)n[nH]1` is ___
Yes

* * *

assay: qHTS of pediatric cancer cell lines to identify multiple opportunities for drug repurposing: Primary screen for OHS-50 cells (AID 1347103); details: OHS-50 osteosarcoma viability, CellTiter-Glo luminescence, 48 h; series mostly up to 57.3 µM; note: nearly all actives have a fitted effect of over 40% in size; note: potency is the fitted concentration of half-maximal effect
Inconclusive results are not listed. Calls of active or inactive are those of the source. Calls follow the shape of the dose curve; as a rule, active = well fitted cell-killing curve with a large enough effect; inconclusive = small, poorly fitted or top-dose-only effect; inactive = no such curve, though single readings can be large or run the other way.
Result type: Potency

CC(C)c1noc(N2CCC(COc3ccc(-c4ccc(S(C)(=O)=O)cc4)nc3)CC2)n1 ... 4.32 µM (active)
Cn1cncc1[C@@](N)(c1ccc(Cl)cc1)c1ccc2c(c1)c(-c1cccc(Cl)c1)cc(=O)n2C ... 7.69 µM (active)
COCCOc1ccc2c(c1)ncn2-c1ccc2cccc(N3CCC(N)CC3)c2n1 ... 19.3 µM (active)
CC(=O)SC[C@@H](C)C(=O)N1CCC[C@H]1C(=O)N[C@@H](Cc1ccccc1)C(=O)O ... inactive
COc1cc2c(Nc3ccc(NC(=O)c4ccccc4)cc3)ncnc2cc1OCCCN1CCOCC1 ... 27.3 µM (active)

# query: Potency of entry `C[C@]1(CO)CN(c2cc(C(=O)Nc3ccc4c(c3)-c3c(c(C(N)=O)nn3-c3ccc(F)cc3)CC4)c(Cl)cn2)C[C@@]1(C)CO`
10.9 µM (active)

// next record `O=c1c2ccccc2nc2n1CCc1c-2[nH]c2ccccc12`
inactive

Query `Cc1cn2c(-c3cn[nH]c3)cnc2c(Nc2ccc(C(=O)N3CCNCC3)cc2F)n1` next
13.7 µM (active)

Now consider `Cc1ccc(C(N)=O)cc1Nc1nccc(-c2cn(C(C)C)c3cnccc23)n1` .
9.68 µM (active)

Now this one: `CN1CCC(CNc2ccc3ncc(-c4cccc(OC(F)(F)F)c4)n3n2)CC1`
4.85 µM (active)

`Nc1ccc(S(=O)(=O)Nc2ncccn2)cc1` ?
inactive

* * *

assay: qHTS of pediatric cancer cell lines to identify multiple opportunities for drug repurposing: Primary screen for SK-N-SH cells (AID 1347098); details: SK-N-SH viability, CellTiter-Glo luminescence, 48 h; series mostly up to 57 µM; note: nearly all actives have a fitted effect of over 65% in size
Records with an inconclusive call do not appear. The source made the active and inactive calls. The call rests on the fitted dose curve; in most records, active means well fitted cell-killing curve with a large enough effect; inconclusive means small, poorly fitted or top-dose-only effect; inactive means no such curve, though single readings can be large or run the other way.
Please reply with one of these outcomes: active, inactive

Examples with answers:
CNC(=O)c1ccc(-c2cnc3ncc(Cc4ccc5ncccc5c4)n3n2)cc1F ... inactive
CNC(=O)c1ccc(N2C(=S)N(c3cnc(C#N)c(C(F)(F)F)c3)C(=O)C23CCC3)cc1F ... active
CCOc1cc2ncc(C#N)c(Nc3ccc(F)c(Cl)c3)c2cc1NC(=O)C=CCN(C)C ... active
Nc1ccccc1NC(=O)c1ccc(CNc2nccc(-c3cccnc3)n2)cc1 ... active

What did this assay record as the result for `CC=C1NC(=O)[C@H]2CSSCCC=C[C@H](CC(=O)N[C@H](C(C)C)C(=O)N2)OC(=O)[C@H](C(C)C)NC1=O` ?
active

Another: `CNC(=O)c1nn(C)c2c1C(C)(C)Cc1cnc(Nc3ccc(N4CCN(C)CC4)cc3)nc1-2`
active

Would you kindly repeat that for `NC(=O)Nc1cc(-c2cccc(F)c2)sc1C(=O)N[C@H]1CCCNC1` ?
active

Again, but for `Clc1ccc2ncc(-c3cccc(NC4CNC4)n3)n2c1`
active

Same read-out for `CN1CCN(Cc2ccc(NC(=O)Nc3ccc(Oc4cc(NC(=O)C5CC5)ncn4)cc3)cc2C(F)(F)F)CC1` ?
active

Same again, this time with `CNc1nccc(-c2cccnc2Oc2cc(C(=O)Nc3cccc(C(F)(F)F)c3)ccc2C)n1`
active

Do the same for `Nc1ncnc2c1c(-c1cnc3[nH]ccc3c1)nn2C1CCCC1` please
active

Another compound to look at: `Cc1ccc(C(=O)Nc2ccc(CN3CCN(C)CC3)c(C(F)(F)F)c2)cc1C#Cc1cnc2cccnn12`
active
